Target: Complement factor D (Homo sapiens)
Experiment: Inhibition of recombinant human C-terminal 6His-tagged complement factor D (26 to 253 residues) expressed in Sf9 insect cells preincubated for 1 hr followed by addition of Z-Lys-thiobenzyl ester as substrate measured over 50 mins at 1 min interval
quantity.measured: pIC50
By convention, pIC50 is the negative base-10 log of a molar concentration.

Q. Need pIC50, item `NC(=O)c1nn(CC(=O)N2CCS[C@H]2C(=O)Nc2cccc(Br)n2)c2ncccc12`
A. 7.72

---

Form field: K (one value per entry).
Target: Complement factor D (Homo sapiens, UniProt P00746)
Sequence (P00746 whole entry, the tested form may be a part): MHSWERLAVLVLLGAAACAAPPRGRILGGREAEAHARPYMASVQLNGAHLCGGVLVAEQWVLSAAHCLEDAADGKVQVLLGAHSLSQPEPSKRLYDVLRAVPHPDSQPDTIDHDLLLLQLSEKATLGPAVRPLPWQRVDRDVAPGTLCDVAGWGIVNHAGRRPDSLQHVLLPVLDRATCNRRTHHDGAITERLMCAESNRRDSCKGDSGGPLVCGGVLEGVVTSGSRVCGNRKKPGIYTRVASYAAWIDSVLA
Assay: Binding affinity to recombinant human C-terminal 6His-tagged/biotinylated complement factor D (26 to 253 residues) expressed in Sf9 insect cells assessed as dissociation constant measured after 300 to 1800 secs by biolayer interferometry method
Hey, just the number and the unit after it is fine.

structure_notation=NC(=O)c1nn(CC(=O)N2[C@@H]3C[C@@H]3C[C@H]2C(=O)Nc2cccc(Br)n2)c2ncccc12 quantity_measured=K result="0.00361 s⁻¹"
structure_notation=O=C(Nc1cccc(Br)n1)[C@@H]1C[C@H]2C[C@H]2N1C(=O)Cn1ncc2ccccc21 quantity_measured=K result="0.189 s⁻¹"
structure_notation=NC(=O)c1nn(CC(=O)N2CCS[C@H]2C(=O)Nc2cccc(Br)n2)c2ncccc12 quantity_measured=K result="0.00327 s⁻¹"

As a next step, examine the molecule that follows.
Q. I am curious: what K value has been reported for `O=C(Nc1cccc(Br)n1)[C@@H]1SCCN1C(=O)Cn1ncc2ccccc21` ?
A. 0.292 s⁻¹
